Assay Notes: In vivo pharmacokinetic study in rats, intravenous
Recorded Conditions: rat, in vivo, 2 mg/kg
Property Measured: Tmax

**Q:** Quote Tmax reported for C[C@@H](OC[C@@]1(c2ccccc2)CC[C@]2(CCC(=O)N2)CN1C(=O)OCSSCCS(=O)(=O)O)c1cc(C(F)(F)F)cc(C(F)(F)F)c1 [Example 42] please.
**A:** 5 min

* * *

Assay Notes: Pharmacokinetic study in crab-eating monkeys, intravenous infusion
Recorded Conditions: monkey, whole blood, 2 mg/kg
Property Measured: Tmax (min)
Write it as a number; the unit min goes unstated.

**Q:** Quote Tmax reported for C[C@@H](OC[C@@]1(c2ccccc2)CC[C@]2(CCC(=O)N2)CN1C(=O)OCOP(=O)(O)O)c1cc(C(F)(F)F)cc(C(F)(F)F)c1 [Compound of formula (I), reference compound] please.
**A:** 30
